Consider the following compounds; for each one, report its melting point.
Structures can show the parent of a compound that is named as a salt.

Examples with their reported melting point follow.
C#C[C@@]1(O)[C@@H](CO[Si](C(C)C)(C(C)C)C(C)C)O[C@@H](n2ccc(N)nc2=O)[C@@H]1O	> 219 °C (dec.)
C#C[C@@]1(O)[C@@H](CO[Si](C)(C)C(C)(C)C(C)C)O[C@@H](n2ccc(N)nc2=O)[C@@H]1O[Si](C)(C)C(C)(C)C(C)C	106 to 108 °C
C#C[C@@]1(O)[C@@H](CO[Si](C)(C)C(C)(C)C)O[C@@H](n2ccc(NC(=O)CN(C)C)nc2=O)[C@@H]1O	180 to 185 °C

Batch request: melting point for each of the following compounds.
1. C#C[C@@]1(O)[C@@H](CO[Si](C(C)C)(C(C)C)C(C)C)O[C@@H](n2ccc(NC(=O)CN(C)C)nc2=O)[C@@H]1O
2. C#C[C@@]1(O)[C@@H](CO[Si](c2ccccc2)(c2ccccc2)C(C)(C)C)O[C@@H](n2ccc(N)nc2=O)[C@@H]1O (hydrate or solvate)
3. C#C[C@@]1(O)[C@@H](CO)O[C@@H](n2ccc(N)nc2=O)[C@@H]1O[Si](C)(C)C(C)(C)C(C)C [Compound 14]
4. C#C[C@@]1(O)[C@@H](CO[Si](C)(C)CCCCCCCC)O[C@@H](n2ccc(N)nc2=O)[C@@H]1O
5. C#C[C@@]1(O)[C@@H](CO[Si](C)(C)C(C)(C)C)O[C@@H](n2ccc(NC(=O)OC(C)(C)C)nc2=O)[C@@H]1O
6. C#C[C@@]1(O)[C@@H](CO[Si](C)(C)C(C)(C)C)O[C@@H](n2ccc(NC(=O)CCCCCC)nc2=O)[C@@H]1O
7. C#C[C@@]1(O)[C@@H](CO[Si](C)(C)c2ccccc2)O[C@@H](n2ccc(N)nc2=O)[C@@H]1O

Reply:
1. 146 to 148 °C
2. 210 to 213 °C
3. 218 °C
4. 175 to 177 °C (dec.)
5. 103 to 110 °C
6. 134 to 137 °C
7. 171 to 173 °C

Batch request: melting point for each of the following compounds.
1. C#C[C@@]1(O)[C@@H](CO[Si](C)(C)C(C)(C)C)O[C@@H](n2ccc(N)nc2=O)[C@@H]1O
2. C#C[C@@]1(O)[C@@H](CO[Si](CC)(CC)CC)O[C@@H](n2ccc(N)nc2=O)[C@@H]1O

Reply:
["251 to 256 °C (dec.)", "202 to 204 °C"]

Batch request: melting point for each of the following compounds.
1. C#C[C@@]1(O)[C@@H](CO)O[C@@H](n2ccc(N)nc2=O)[C@@H]1O[Si](C)(C)C(C)(C)C(C)C (as salt: trifluoroacetic acid salt) [Compound 13]
2. C#C[C@@]1(O)[C@@H](CO[Si](C)(C)C(C)(C)C(C)C)O[C@@H](n2ccc(N)nc2=O)[C@@H]1O

Reply:
["182 °C", "> 197 °C (dec.)"]
